GI50 by entry:
System: KM12
Experiment: NCI tumour cell line growth inhibition, 48 h
Active and inactive are the calls of the source. Rule as the data show it: active = GI50 up to about 1.1 µM and inactive = higher.

compound	GI50
Nc1ccccc1N/C=C\C(=O)C(Cl)(Cl)Cl	15.5 µM (inactive)
CC(C)CCC[C@@H](C)[C@H]1CCC2C3CC=C4C[C@@H](Oc5c6ccccc6nc6ccccc56)CCC4C3CCC21 (stereo not given in full)	> 50 µM (inactive)
O=C1N/C(=N/N=C/C(O)C(O)C(O)C(O)CO)N/C1=C\c1ccco1 (stereo not given)	> 100 µM (inactive)
CN(C)c1ccccc1CC(c1c[nH]c2ccccc12)c1c[nH]c2ccccc12	4.36 µM (inactive)
O=[N+]([O-])c1cc(Br)cc2cc(Cl)cnc12	> 100 µM (inactive)
CC(C)(C)C1(O)C=C(O)C(=O)N1NC(=O)c1ccccc1Nc1ccccc1 (stereo not given)	40.9 µM (inactive)
CCOC(=O)NC(=O)c1cn(C2CCCCC2)c(=O)n(C)c1=O	> 100 µM (inactive)
Cc1cnc2sn(-c3ccc(Oc4ccccc4)cc3)c(=O)c2c1	13.4 µM (inactive)
CC1=CC(=O)N2C(OC[C@@H]2c2ccccc2)O1 (stereo not given in full)	> 100 µM (inactive)
COc1cc(-c2cc(=O)c3cc4c(cc3[nH]2)OCO4)cc(OC)c1O	> 10 µM (inactive)
